- Target Entity: Nicotinamide N-methyltransferase (Homo sapiens) (UniProt P40261)
- Sequence (P40261 whole entry, looked up): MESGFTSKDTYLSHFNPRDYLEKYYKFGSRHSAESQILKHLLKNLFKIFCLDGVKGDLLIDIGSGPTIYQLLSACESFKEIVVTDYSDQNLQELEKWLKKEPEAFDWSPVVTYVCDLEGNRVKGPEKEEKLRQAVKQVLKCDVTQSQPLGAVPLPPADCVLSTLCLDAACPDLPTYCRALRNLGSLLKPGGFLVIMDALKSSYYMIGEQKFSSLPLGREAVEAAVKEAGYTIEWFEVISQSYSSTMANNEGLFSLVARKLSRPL
- Assay Procedure: Confirmatory Screen for Target Class Profiling of Small Molecule Inhibitors of Methyltransferases (AID 1745852)
- Test Conditions: MTase-Glo luminescence, SAH detection, recombinant enzyme; measured here: NNMT max response; stronger effect = lower value
In plain terms, low activity, meaning strictly below -20%, gives label 1, and everything else gives label 0.

Before answering, review these 5 worked examples.
| Compound | Target Entity | Category Label |
| --- | --- | --- |
| Cc1cc(C)c(CNC(=O)c2cc(-c3cnn(C)c3C)cc3c2OCCN3C)c(=O)[nH]1 | Nicotinamide N-methyltransferase (Homo sapiens) (UniProt P40261) | label 1 |
| CN1CCC(N2CC[C@H](c3nc4ccc(C(F)(F)F)cc4[nH]3)C2)CC1 | Nicotinamide N-methyltransferase (Homo sapiens) (UniProt P40261) | label 0 |
| Cc1c(C(=O)O)ccc2c1N[C@@H](c1cccc(C(F)(F)F)c1)[C@H]1CC=C[C@@H]21 | Nicotinamide N-methyltransferase (Homo sapiens) (UniProt P40261) | label 0 |
| Cc1cc(-c2cc3c(cn2)N(C)CCN(C)C3)ccn1 | Nicotinamide N-methyltransferase (Homo sapiens) (UniProt P40261) | label 0 |
| CCNc1nc2c(s1)C(c1cccc(F)c1)CC(=O)N2 (stereo not given) | Nicotinamide N-methyltransferase (Homo sapiens) (UniProt P40261) | label 1 |

Take the compound COc1ccc(CN2CCCC(COc3ccccc3C(=O)NC3CC3)C2)c(OC)c1 (stereo not given) and say whether its activity is less than -20%.
label 0

# strict comparison: is reported activity < -20%? input = O=C(CCc1ccccc1)N1CCNc2cnc(Nc3cccnc3)nc2C1
label 1

* * *

- Target Entity: Cytochrome P450 2C19 (Homo sapiens)
- Assay Procedure: qHTS for inhibitors of CYP2C19 against the NCATS DSHEA and TCM libraries (AID 1919974);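 further: luminescence from luciferin released by CYP2C19 oxidation of a pro-luciferin substrate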; further: potency means the concentration at half of the fitted maximal effect
- Test Conditions: CYP2C19 enzyme inhibition, luminescence qHTS; series mostly up to 34.1 µM
Results filed as inconclusive are left out. Activity calls are given as the source filed them. Calls follow the shape of the dose curve; as a rule, active = well fitted inhibition curve with a large enough effect; inconclusive = small, poorly fitted or top-dose-only effect; inactive = no such curve, though single readings can be large or run the other way.
Readout: Potency

See these solved cases before continuing.
| Compound | Potency |
| --- | --- |
| COc1cc(-c2oc3cc(O)cc(O)c3c(=O)c2O)ccc1O | 7.94 µM (active) |
| CC(=O)OC1CC2CCC1(C)C2(C)C (stereo unspecified) | inactive |
| O=C(OC[C@H]1O[C@@H](OC(=O)c2cc(O)c(O)c(O)c2)[C@H](OC(=O)c2cc(O)c(O)c(O)c2)[C@@H](OC(=O)c2cc(O)c(O)c(O)c2)[C@@H]1O)c1cc(O)c(O)c(O)c1 | 3.98 µM (active) |
| CC(C)c1ccc(C=O)cc1 | inactive |

Tell me Potency of CC(C)=CCC[C@](C)(O[C@@H]1O[C@H](CO)[C@@H](O)[C@H](O)[C@H]1O)[C@H]1CC[C@]2(C)[C@@H]1[C@H](O)C[C@@H]1[C@@]3(C)CC[C@H](O[C@@H]4O[C@H](CO)[C@@H](O)[C@H](O)[C@H]4O[C@@H]4O[C@H](CO)[C@@H](O)[C@H](O)[C@H]4O)C(C)(C)[C@@H]3CC[C@]12C when tested on Cytochrome P450 2C19 (Homo sapiens).
inactive

For Cytochrome P450 2C19 (Homo sapiens), give the measured Potency of the entry CCCCCCCCC/C=C/C(=O)CCc1ccc(O)c(OC)c1
3.98 µM (active)

Write down measured Potency (Cytochrome P450 2C19 (Homo sapiens)) for this compound. Cc1ccc(O)c(O)c1
inactive

Please respond with reported Potency (system Cytochrome P450 2C19 (Homo sapiens)) for CCCCCCCC/C=C\CCCCCCCCCCCCCC(=O)O .
inactive
